Target: T1, 4H3395-AA
T1 chain: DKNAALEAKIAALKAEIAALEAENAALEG
Assay: two-hybrid library CCmax;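 further: natural log of median RNA to DNA barcode read ratio; higher means stronger binding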
Conditions: mean of both orientations
measurement.name: interaction score

Example binders with recorded interaction score:
{"binder": "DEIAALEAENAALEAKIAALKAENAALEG [4H171-AA]", "interaction score": -1.24}
{"binder": "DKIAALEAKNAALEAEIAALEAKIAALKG [4H2438-AA]", "interaction score": 0.314}
{"binder": "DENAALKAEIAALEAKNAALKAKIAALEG [4H1597-AA]", "interaction score": -1.14}

1. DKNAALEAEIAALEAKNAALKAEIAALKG [4H3130-AA]
2. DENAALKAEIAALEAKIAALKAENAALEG [4H1579-AA]
3. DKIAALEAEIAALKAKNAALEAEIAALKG [4H2162-AA]
With regard to interaction score, arrange the entries in ascending order, please. Reply: labels, ordered per the request. 1, 3, 2

I. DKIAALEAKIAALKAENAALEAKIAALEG [4H2389-AA]
II. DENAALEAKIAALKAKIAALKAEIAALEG [4H1385-AA]
Kindly compare I with II and tell me which has the lower interaction score figure. Lab log: write the label of the selected item as the result. I
(I: -1.54, II: 0.689)

P. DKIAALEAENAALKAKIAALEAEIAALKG [4H2274-AA]
Q. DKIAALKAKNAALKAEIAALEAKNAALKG [4H3016-AA]
R. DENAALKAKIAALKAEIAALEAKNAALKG [4H1864-AA]
S. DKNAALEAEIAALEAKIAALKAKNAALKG [4H3120-AA]
Please give the order of these binders when sorted by interaction score, largest value leading. Reply: labels, ordered per the request. S, R, Q, P

1. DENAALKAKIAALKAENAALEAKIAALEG [4H1877-AA]
2. DEIAALEAKIAALEAKNAALEAKIAALKG [4H310-AA]
Thinking about recorded interaction score values, which is higher, 1 or 2 ? Lab log: write the label of the selected item as the result. 2
(2: -1.03, 1: -1.77)

Each recorded value in this set is attributed to paper PMC10397247.
